- System: erythroid progenitor cells (EPCs)
- protocol_text: Fetal hemoglobin (HbF) ELISA in day 7 erythroid progenitor cells;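 further: for fetal hemoglobin induction normalized to vehicle-treated cells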
- Type: cell-based, human
- condition_description: Homo sapiens, Erythroid progenitor cell, HbF ELISA, day 7 EPCs, 5 days; read-out: EPC ELISA (pEC50 category) (converted)
Where a name gives a salt, the structure may show the parent alone.
measured_property: EC50

Worked examples, 4 compounds total:
INSERT INTO results (compound, meas_value) VALUES
  ('CCc1c(C#N)c(SC(C(N)=O)c2ccccc2)nc(N(C)CCN2CCC[C@@H]2CO)c1C#N (stereo partly shown)', '< 0.316 µM'),
  ('CCc1c(C#N)c(SC(C(N)=O)c2ccccc2)nc(N(C)CC(=O)NOC)c1C#N (stereo not shown)', '< 0.316 µM'),
  ('CCc1c(C#N)c(SC(C(N)=O)c2ccccc2)nc(N2CCC(NCC3(C)COC3)CC2)c1C#N (stereo not shown)', '< 0.316 µM'),
  ('CCc1c(C#N)c(S[C@@H](C(N)=O)c2ccccc2)nc(N(C)CC(N)=O)c1C#N (single isomer, unassigned)', '< 0.316 µM');

Supply EC50 value. Item: CCc1c(C#N)c(SC(C(N)=O)c2ccnc(F)c2)nc(N2CCCN(C)CC2)c1C#N (stereo not shown)
> 31.6 µM

Consider the compound CCc1c(C#N)c(SC(C(N)=O)c2ccccc2)nc(N(C)CCNC2(C)CC2)c1C#N (stereo not shown) and give its recorded EC50.
< 0.316 µM

Assign EC50 to the following record: CSc1c(C#N)c(SC(C(N)=O)c2ccccc2)nc(N2CCCN(C)CC2)c1C#N (stereo not shown)
0.316 to 1 µM

Give the measured EC50 for CCc1c(C#N)c(SC(C(N)=O)c2ccccc2)nc(N2CC(CO)C2)c1C#N (stereo not shown)
1 to 31.6 µM

Read off the recorded EC50 for CCc1c(C#N)c(SC(C(N)=O)c2ccccc2)nc(N2CCN(Cc3cnoc3)CC2)c1C#N (stereo not shown)
0.316 to 1 µM

For the compound N#Cc1c(SC(C(N)=O)c2ccccc2)nc(N2CCC(NC(=O)CN)CC2)c(C#N)c1C1CC1 (stereo not shown) [Example 642, formate] , give its measured EC50 value.
1 to 31.6 µM

Identify measured EC50 associated with N#Cc1c(SC(C(N)=O)c2ccccc2)nc(N2CCCNCC2)c(C#N)c1C1CC1 (stereo not shown)
< 0.316 µM

For the compound CCc1c(C#N)c(SC(C(N)=O)c2ccsc2)nc(N2CCNCC2)c1C#N (stereo not shown) , report EC50.
0.316 to 1 µM

Supply reported EC50 belonging to this compound: CCc1c(C#N)c(SC(C(N)=O)c2ccccc2)nc(N2CCC[C@H](NCC(F)F)C2)c1C#N (stereo partly shown)
1 to 31.6 µM

Return reported EC50. Input compound: CCc1c(C#N)c(SC(C(N)=O)c2ccccc2)nc(N2CCN(CC)CC2)c1C#N (stereo not shown)
1 to 31.6 µM

Look up EC50 of CCc1c(C#N)c(SC(C(N)=O)c2ccccc2)nc(N2CCC(N3CC[C@@H](F)C3)CC2)c1C#N (stereo partly shown) and report it.
< 0.316 µM

Query EC50 for N#Cc1c(SC(C(N)=O)c2ccccc2)nc(N2CCC(N3CCOCC3)CC2)c(C#N)c1C1CC1 (stereo not shown)
< 0.316 µM

Data provenance: patent US10975056B2
